Where these numbers come from: ChEMBL document CHEMBL4028885

Assay: Ratio of drug level in FBV mouse brain to plasma at 30 mg/kg, sc after 1 hr
Assay type: ADME, organism-based
Details: brain and plasma, read-out: BPR
Some compounds, each annotated with its measured Kp at 1 h.
Assay endpoint: Kp at 1 h

>  <Mol>
CC(=O)N[C@@H](Cc1cc(F)cc(F)c1)[C@H](O)[C@H]1CO[C@@H](OCC2CCCCC2)[C@H](C)N1

>  <Assay endpoint>
Kp at 1 h

>  <Data value>
0.18

$$$$
>  <Mol>
CC(=O)N[C@@H](Cc1cc(F)cc(F)c1)[C@H](O)[C@H]1CC[C@@H](OCC2CCCCC2)CN1.Cl

>  <Assay endpoint>
Kp at 1 h

>  <Data value>
0.07

$$$$
>  <Mol>
CC(=O)N[C@@H](Cc1cc(F)cc(F)c1)[C@H](O)[C@H]1CO[C@@H](OCC2CCCCC2)CN1.O=C(O)C(F)(F)F

>  <Assay endpoint>
Kp at 1 h

>  <Data value>
0.42

$$$$
